# assay-target: GlcNAc(b1-3)Gal
# protocol-description: glycan array binding signal (z-score within array); higher = stronger binding
# test-conditions: glycan notation: IUPAC condensed, linker removed
The entries come from a sample that favours the strongest signals as a whole.
measured-property: glycan array binding signal (z-score)

RfpC (Mycobacterium tuberculosum), O07747 (protein) MHHHHHHSSGRENLYFQGHMASKSAMAAGLVTASMSLSTAVAHAGPSPNWDAVAQCESGGNWAANTGNGKYGGLQFKPATWAAFGGVGNPAAASREQQIAVANRVLAEQGLDAWPTCGAASGLPIALWSKPAQGIKGS : -0.187
SJCP3842 (Schistosoma japonicum) (protein) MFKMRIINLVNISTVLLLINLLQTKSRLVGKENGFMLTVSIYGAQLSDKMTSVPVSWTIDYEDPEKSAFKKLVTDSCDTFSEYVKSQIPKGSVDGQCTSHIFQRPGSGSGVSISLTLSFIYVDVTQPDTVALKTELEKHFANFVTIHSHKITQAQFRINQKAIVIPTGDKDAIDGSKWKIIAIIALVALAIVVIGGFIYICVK : -1.01
BSR4 (Toxoplasma gondii), Q95NL6 (protein) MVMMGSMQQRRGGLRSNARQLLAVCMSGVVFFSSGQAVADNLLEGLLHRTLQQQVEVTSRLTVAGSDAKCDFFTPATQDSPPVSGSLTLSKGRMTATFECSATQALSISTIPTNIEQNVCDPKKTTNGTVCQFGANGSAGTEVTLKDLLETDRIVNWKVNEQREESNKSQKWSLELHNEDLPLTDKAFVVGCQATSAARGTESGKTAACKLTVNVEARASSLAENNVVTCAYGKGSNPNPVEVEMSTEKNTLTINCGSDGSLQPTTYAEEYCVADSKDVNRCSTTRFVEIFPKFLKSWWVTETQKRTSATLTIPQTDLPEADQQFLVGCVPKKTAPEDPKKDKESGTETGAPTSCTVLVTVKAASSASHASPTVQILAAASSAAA : -0.636

Q) // query glycan array binding signal (z-score) value for entry F17dG (Escherichia coli), Q47199 (protein) MTNFYKVFLAVFILVCCNISQAAVSFIGSTENDVGPSPGSYSRTHAMDNLPFVYNTGNNIGYQNANVWRISKGFCVGLDGKVDLPVVGSLDGQSIYGLTEEVGLLIWMGDTNYSRGTAMSGNSWENVFSGWCVGANTASTQGLSVRVTPVILKRNSSARYSVQKTSIGSIRMRPYNGSSAGSVQTTVNFSLNPFTLNDTVTSCRLLTPSAVNVSLAAISAGQLPSSGDEVVAGTTSLKLQCDAGVTVWATLTDATTPSNRSDILTLTGASTATGVGLRIYKNTDSTPLKFGPDSPVKGNENQWQLSTGTETSPSVRLYVKYVNTGEGINPGTVNGISTFTFSYQ
A) 4.56

Values were extracted from the supplement of paper PMC8728848.
